Entries and their measured pIC50 follow.
Test system: HepG2
procedure_details: cells
experimental_setup: Homo sapiens, HepG2, 24 h
Description: Antiproliferative activity against human HepG2 cells assessed as reduction in cell viability after 24 hrs by MTT assay
On this scale, pIC50 is minus log10 of a concentration expressed in M (mol/L).

Reference set, count: 2
- smiles_text: "Cc1cccc(-n2cc(-c3ccccc3NS(=O)(=O)c3c[nH]c(=O)[nH]c3=O)nn2)c1"
  tgt: "HepG2"
  endpoint_name: "pIC50"
  result_number: 5.44
- smiles_text: "Cc1ccccc1-n1cc(-c2ccc(NS(=O)(=O)c3c[nH]c(=O)[nH]c3=O)cc2)nn1"
  tgt: "HepG2"
  endpoint_name: "pIC50"
  result_number: 4.84

Shift focus to the following entry.
q: Tell me its pIC50 given O=c1[nH]cc(S(=O)(=O)Nc2ccccc2-c2cn(-c3ccccc3Cl)nn2)c(=O)[nH]1 as the entry.
a: 5.65

---

procedure_details: Cytotoxicity against human L02 cells assessed as reduction in cell viability after 24 hrs by MTT assay
Format: cell-based
experimental_setup: L02 cells
Entries and their measured CC50 at 24 h follow.
Give the value in µM but do not write µM after it.

- smiles_text: "O=c1[nH]cc(S(=O)(=O)Nc2ccccc2-c2cn(-c3ccccc3)nn2)c(=O)[nH]1"
  CC50 at 24 h / µM: 10.6

Shift focus to the following entry.
q: Tell me its CC50 at 24 h given O=c1[nH]cc(S(=O)(=O)Nc2ccc(-c3cn(-c4ccccc4Cl)nn3)cc2)c(=O)[nH]1 as the entry.
a: 19.3

---

Tested on: HepG2
procedure_details: cells
experimental_setup: Homo sapiens, HepG2, 24 h
Entries and their measured IC50 follow.
Give the value in µM but do not write µM after it.

- compound: "O=c1[nH]cc(S(=O)(=O)Nc2ccc(-c3cn(-c4cccc(Cl)c4)nn3)cc2)c(=O)[nH]1"
  endpoint_name: "IC50"
  units: "µM"
  result_number: 2.02

q: Answer briefly: IC50 recorded on HepG2 for O=c1[nH]cc(S(=O)(=O)Nc2cccc(-c3cn(-c4cccc(Cl)c4)nn3)c2)c(=O)[nH]1
a: 4.2

q: Answer briefly: IC50 recorded on HepG2 for O=c1[nH]cc(S(=O)(=O)Nc2cccc(-c3cn(-c4ccc(Cl)cc4)nn3)c2)c(=O)[nH]1
a: 1.96

q: Answer briefly: IC50 recorded on HepG2 for Cc1ccc(-n2cc(-c3ccc(NS(=O)(=O)c4c[nH]c(=O)[nH]c4=O)cc3)nn2)cc1
a: 11.6

q: Answer briefly: IC50 recorded on HepG2 for Cc1ccc(-n2cc(-c3ccccc3NS(=O)(=O)c3c[nH]c(=O)[nH]c3=O)nn2)cc1
a: 8.35

q: Answer briefly: IC50 recorded on HepG2 for Cc1ccccc1-n1cc(-c2ccccc2NS(=O)(=O)c2c[nH]c(=O)[nH]c2=O)nn1
a: 13.9

q: Answer briefly: IC50 recorded on HepG2 for Cc1cccc(-n2cc(-c3cccc(NS(=O)(=O)c4c[nH]c(=O)[nH]c4=O)c3)nn2)c1
a: 7.05

q: Answer briefly: IC50 recorded on HepG2 for Nc1nc2[nH]cc(CCc3ccc(C(=O)N[C@@H](CCC(=O)O)C(=O)O)cc3)c2c(=O)[nH]1 [PEMETREXED DISODIUM]
a: 3.73

q: Answer briefly: IC50 recorded on HepG2 for O=c1[nH]cc(S(=O)(=O)Nc2cccc(-c3cn(-c4ccccc4Cl)nn3)c2)c(=O)[nH]1
a: 4.03

q: Answer briefly: IC50 recorded on HepG2 for O=c1[nH]cc(S(=O)(=O)Nc2ccc(-c3cn(-c4ccccc4Cl)nn3)cc2)c(=O)[nH]1
a: 2.23

q: Answer briefly: IC50 recorded on HepG2 for Cc1ccccc1-n1cc(-c2cccc(NS(=O)(=O)c3c[nH]c(=O)[nH]c3=O)c2)nn1
a: 9.57

q: Answer briefly: IC50 recorded on HepG2 for O=c1[nH]cc(S(=O)(=O)Nc2ccccc2-c2cn(-c3ccc(Cl)cc3)nn2)c(=O)[nH]1
a: 1.84

q: Answer briefly: IC50 recorded on HepG2 for O=c1[nH]cc(S(=O)(=O)Nc2ccc(-c3cn(-c4ccc(Cl)cc4)nn3)cc2)c(=O)[nH]1
a: 1.98

q: Answer briefly: IC50 recorded on HepG2 for O=c1[nH]cc(S(=O)(=O)Nc2ccccc2-c2cn(-c3ccccc3)nn2)c(=O)[nH]1
a: 6.16

---

Entries and their measured CC50 at 24 h follow.
procedure_details: Cytotoxicity against human HPAEpic cells assessed as reduction in cell viability after 24 hrs by MTT assay
Assay type: cell-based
experimental_setup: HPAEpic cells
Give the value in µM but do not write µM after it.

Reference set, count: 2
- compound: "Nc1nc2[nH]cc(CCc3ccc(C(=O)N[C@@H](CCC(=O)O)C(=O)O)cc3)c2c(=O)[nH]1 [PEMETREXED DISODIUM]"
  endpoint_name: "CC50 at 24 h"
  result_number: 25.4
- compound: "O=c1[nH]cc(S(=O)(=O)Nc2ccc(-c3cn(-c4ccc(Cl)cc4)nn3)cc2)c(=O)[nH]1"
  endpoint_name: "CC50 at 24 h"
  result_number: 14.8

Shift focus to the following entry.
q: Tell me its CC50 at 24 h given Cc1ccccc1-n1cc(-c2ccccc2NS(=O)(=O)c2c[nH]c(=O)[nH]c2=O)nn1 as the entry.
a: 9.67

---

Entries and their measured CC50 at 24 h follow.
procedure_details: Cytotoxicity against human GES-1 cells assessed as reduction in cell viability after 24 hrs by MTT assay
Type: cell-based, GES1
experimental_setup: GES-1 cells
Give the value in µM but do not write µM after it.

- smiles_text: "O=c1[nH]cc(S(=O)(=O)Nc2ccc(-c3cn(-c4ccccc4Cl)nn3)cc2)c(=O)[nH]1"
  units: "µM"
  CC50 at 24 h: 16.4
- smiles_text: "Cc1ccccc1-n1cc(-c2cccc(NS(=O)(=O)c3c[nH]c(=O)[nH]c3=O)c2)nn1"
  units: "µM"
  CC50 at 24 h: 21.5
- smiles_text: "O=c1[nH]cc(S(=O)(=O)Nc2ccc(-c3cn(-c4ccc(Cl)cc4)nn3)cc2)c(=O)[nH]1"
  units: "µM"
  CC50 at 24 h: 23.3
- smiles_text: "O=c1[nH]cc(S(=O)(=O)Nc2ccccc2-c2cn(-c3ccccc3Cl)nn2)c(=O)[nH]1"
  units: "µM"
  CC50 at 24 h: 20.8

q: Tell me its CC50 at 24 h given Cc1cccc(-n2cc(-c3ccccc3NS(=O)(=O)c3c[nH]c(=O)[nH]c3=O)nn2)c1 as the entry.
a: 23.7

q: Tell me its CC50 at 24 h given Cc1ccc(-n2cc(-c3ccccc3NS(=O)(=O)c3c[nH]c(=O)[nH]c3=O)nn2)cc1 as the entry.
a: 32.4

q: Tell me its CC50 at 24 h given O=c1[nH]cc(S(=O)(=O)Nc2ccccc2-c2cn(-c3ccc(Cl)cc3)nn2)c(=O)[nH]1 as the entry.
a: 26.7

q: Tell me its CC50 at 24 h given Cc1ccccc1-n1cc(-c2ccccc2NS(=O)(=O)c2c[nH]c(=O)[nH]c2=O)nn1 as the entry.
a: 19.9

---

procedure_details: Selectivity index, ratio of CC50 for cytotoxicity against human L02 cells to IC50 for antiproliferative activity against human HepG2 cells
experimental_setup: L02 cells (CC50) versus HepG2 cells (IC50)
endpoint_name: selectivity ratio
Just the number, please, no unit attached.

q: Tell me its selectivity ratio given Nc1nc2[nH]cc(CCc3ccc(C(=O)N[C@@H](CCC(=O)O)C(=O)O)cc3)c2c(=O)[nH]1 [PEMETREXED DISODIUM] as the entry.
a: 8.23

---

procedure_details: Cytotoxicity against human IOSE-80 cells assessed as reduction in cell viability after 24 hrs by MTT assay
Format: cell-based
experimental_setup: IOSE-80 cells
CC50 at 24 h strictly less than 20 µM = true. Otherwise false.

Below, 5 molecules whose answers are already recorded.
- molecule: "O=c1[nH]cc(S(=O)(=O)Nc2cccc(-c3cn(-c4ccc(Cl)cc4)nn3)c2)c(=O)[nH]1"
  category: "true"
- molecule: "Cc1cccc(-n2cc(-c3ccccc3NS(=O)(=O)c3c[nH]c(=O)[nH]c3=O)nn2)c1"
  category: "true"
- molecule: "Cc1ccc(-n2cc(-c3cccc(NS(=O)(=O)c4c[nH]c(=O)[nH]c4=O)c3)nn2)cc1"
  category: "true"
- molecule: "O=c1[nH]cc(S(=O)(=O)Nc2ccccc2-c2cn(-c3ccccc3Cl)nn2)c(=O)[nH]1"
  category: "true"
- molecule: "Cc1ccc(-n2cc(-c3ccc(NS(=O)(=O)c4c[nH]c(=O)[nH]c4=O)cc3)nn2)cc1"
  category: "false"

q: Please state whether CC50 at 24 h is below 20 µM for O=c1[nH]cc(S(=O)(=O)Nc2ccc(-c3cn(-c4ccc(Cl)cc4)nn3)cc2)c(=O)[nH]1
a: true

q: Please state whether CC50 at 24 h is below 20 µM for O=c1[nH]cc(S(=O)(=O)Nc2ccc(-c3cn(-c4cccc(Cl)c4)nn3)cc2)c(=O)[nH]1
a: true

q: Please state whether CC50 at 24 h is below 20 µM for O=c1[nH]cc(S(=O)(=O)Nc2ccccc2-c2cn(-c3ccccc3)nn2)c(=O)[nH]1
a: true

q: Please state whether CC50 at 24 h is below 20 µM for O=c1[nH]cc(S(=O)(=O)Nc2ccccc2-c2cn(-c3cccc(Cl)c3)nn2)c(=O)[nH]1
a: false

q: Please state whether CC50 at 24 h is below 20 µM for Cc1ccc(-n2cc(-c3ccccc3NS(=O)(=O)c3c[nH]c(=O)[nH]c3=O)nn2)cc1
a: false

q: Please state whether CC50 at 24 h is below 20 µM for Cc1ccccc1-n1cc(-c2ccccc2NS(=O)(=O)c2c[nH]c(=O)[nH]c2=O)nn1
a: true

q: Please state whether CC50 at 24 h is below 20 µM for Cc1cccc(-n2cc(-c3cccc(NS(=O)(=O)c4c[nH]c(=O)[nH]c4=O)c3)nn2)c1
a: false

q: Please state whether CC50 at 24 h is below 20 µM for Cc1ccccc1-n1cc(-c2cccc(NS(=O)(=O)c3c[nH]c(=O)[nH]c3=O)c2)nn1
a: false

q: Please state whether CC50 at 24 h is below 20 µM for Cc1cccc(-n2cc(-c3ccc(NS(=O)(=O)c4c[nH]c(=O)[nH]c4=O)cc3)nn2)c1
a: false

q: Please state whether CC50 at 24 h is below 20 µM for Nc1nc2[nH]cc(CCc3ccc(C(=O)N[C@@H](CCC(=O)O)C(=O)O)cc3)c2c(=O)[nH]1 [PEMETREXED DISODIUM]
a: true

q: Please state whether CC50 at 24 h is below 20 µM for O=c1[nH]cc(S(=O)(=O)Nc2ccc(-c3cn(-c4ccccc4Cl)nn3)cc2)c(=O)[nH]1
a: false

q: Please state whether CC50 at 24 h is below 20 µM for O=c1[nH]cc(S(=O)(=O)Nc2ccccc2-c2cn(-c3ccccc3F)nn2)c(=O)[nH]1
a: false

FYI, the data here is from ChEMBL document CHEMBL4346687.
